Measurement Target: Zif268 zinc fingers 1-3 (UniProt P08046 P08046:336-416)
Assay Comment: EMSA; 10 mM Hepes pH 7.9, 50 mM KCl, 0.5 mM EDTA, 30 C; apparent Kd
Measurement Type: Kd (pM)
Report the figure in pM without appending any unit label.

Need Kd, item Zif268 site probe (dsDNA) DNA 1: CCTCGAGGCGCCCACGCCTAGGTACC DNA 2: GGTACCTAGGCGTGGGCGCCTCGAGG 330
